Target: PRMT5 (Homo sapiens)
Construct: purchased Viva (custom protein)
Experiment: PRMT5 IC50 assay in the presence of SAM as cofactor
Format: biochemical
pIC50: −log10 of the molar value.
READOUT_NAME: pIC50

Reference set, count: 3
{"columns": ["MOLECULE", "READOUT_NAME", "ASSAY_RESULT"],
 "data": [
  ["Cc1ncoc1COc1ccc2c(c1)CCN(C[C@@H](O)CNC(=O)c1cc(NC3CCC3)nc(N3C4CCC3COC4)c1)C2", "pIC50", "6.30 to 7.30"],
  ["O=C(NC[C@H](O)CN1CCc2cc(OCc3cnco3)ccc2C1)c1cncc(NC2CCOC2)c1 (stereo partly shown)", "pIC50", "5.30 to 6.30"],
  ["CC(=O)N1CCC(Nc2cc(C(=O)NC[C@H](O)CN3CCc4cc(OCc5ocnc5C)c(F)cc4C3)cc(N3CCCCC3)n2)CC1", "pIC50", "6.30 to 7.30"]
]}

Switching to the query record.
[ask] Report pIC50 on PRMT5 (Homo sapiens) for this entry: CC(=O)N1CCC(Nc2cncc(C(=O)NC[C@H](O)CN3CCc4c(ccc(OCc5cnco5)c4C)C3)c2)CC1
[reply] 6.30 to 7.30

* * *

compounds and their reported IC50
Molecular target: PRMT5 (Homo sapiens, UniProt O14744)
Construct: purchased Viva (custom protein)
Sequence (O14744 whole entry): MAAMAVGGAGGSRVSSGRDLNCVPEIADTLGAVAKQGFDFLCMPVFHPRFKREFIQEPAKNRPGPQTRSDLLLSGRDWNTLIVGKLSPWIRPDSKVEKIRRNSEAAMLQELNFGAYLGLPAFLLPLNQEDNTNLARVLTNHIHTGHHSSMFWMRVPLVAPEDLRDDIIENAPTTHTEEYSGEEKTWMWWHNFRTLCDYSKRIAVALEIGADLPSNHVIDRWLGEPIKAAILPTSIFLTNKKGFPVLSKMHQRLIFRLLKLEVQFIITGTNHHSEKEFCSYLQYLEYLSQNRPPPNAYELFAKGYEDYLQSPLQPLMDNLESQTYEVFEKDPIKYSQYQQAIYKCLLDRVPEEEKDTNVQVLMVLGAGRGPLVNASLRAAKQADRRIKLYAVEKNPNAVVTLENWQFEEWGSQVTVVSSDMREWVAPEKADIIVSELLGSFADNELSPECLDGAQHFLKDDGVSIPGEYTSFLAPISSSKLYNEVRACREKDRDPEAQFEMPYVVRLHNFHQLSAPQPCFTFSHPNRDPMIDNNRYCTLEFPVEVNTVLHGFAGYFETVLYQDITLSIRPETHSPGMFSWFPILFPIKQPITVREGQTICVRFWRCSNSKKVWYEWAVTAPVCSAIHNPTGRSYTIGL
Sequence (Q9BQA1 whole entry partner): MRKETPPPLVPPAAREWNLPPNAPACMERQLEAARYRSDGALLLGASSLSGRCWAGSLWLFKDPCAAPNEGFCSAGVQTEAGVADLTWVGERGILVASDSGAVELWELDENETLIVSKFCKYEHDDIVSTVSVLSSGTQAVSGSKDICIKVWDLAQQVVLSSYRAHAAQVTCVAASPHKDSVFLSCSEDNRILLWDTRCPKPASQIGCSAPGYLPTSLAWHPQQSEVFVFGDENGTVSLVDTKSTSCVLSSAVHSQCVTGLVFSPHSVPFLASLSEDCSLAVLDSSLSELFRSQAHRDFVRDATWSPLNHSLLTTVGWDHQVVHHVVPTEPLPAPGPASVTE
Assay: PRMT5 IC50 assay with no cofactor
Type: biochemical

{"columns": ["COMPOUND", "IC50"],
 "data": [
  ["Cc1ncoc1COc1ccc2c(c1C)CCN(C[C@@H](O)CNC(=O)c1ccc3c(c1)CCN(C(=O)c1ccc(Br)cc1)C3)C2", "≥ 5 µM"],
  ["Cc1c(OCc2cnco2)ccc2c1CCN(C[C@@H](O)CNC(=O)c1ccnc(NC3CCN(C(=O)C(C)C)CC3)c1)C2", "0.5 to 5 µM"],
  ["Cc1c(OCc2cnco2)ccc2c1CCN(C[C@@H](O)CNC(=O)c1ccnc(NC3CCC3C3CCC3)c1)C2 (stereo partly shown)", "≥ 5 µM"]
]}

[ask] Identify measured IC50 corresponding to Cc1c(OCc2cnco2)ccc2c1CCN(C[C@@H](O)CNC(=O)c1cc(NC3CCN(C(=O)C(C)(C)C)CC3)ncn1)C2
[reply] ≥ 5 µM

* * *

Measured IC50 by item
Target: PRMT5 (Homo sapiens)
Construct: purchased Viva (custom protein)
Assay: PRMT5 IC50 assay in the presence of MTA as cofactor
Assay type: biochemical
Settings: PRMT5, MTA as cofactor

[ask] Fill: IC50 (PRMT5 (Homo sapiens)) for this compound CC(=O)N1CCC(Nc2cc(C(=O)NC[C@H](O)CN3CCc4cc(OCc5ocnc5C)ccc4C3)ccn2)CC1
[reply] < 50 nM

[ask] Answer with IC50 of Cc1ncoc1COc1cc(F)c2c(c1)CCN(C[C@@H](O)CNC(=O)c1ccnc(NC3CCC3)c1)C2 measured for PRMT5 (Homo sapiens).
[reply] 50 to 500 nM

[ask] Write IC50 of CC(=O)N1CCC(Nc2cc(C(=O)NC[C@H](O)CN3CCc4cc(OCc5conc5C)ccc4C3)ncn2)CC1 ; system used: PRMT5 (Homo sapiens)
[reply] 50 to 500 nM

[ask] Recall the reported IC50 of CC(=O)N1CCN(c2nc(NC3COC3)cc(C(=O)NC[C@H](O)CN3CCc4cc(OCc5ocnc5C)ccc4C3)n2)CC1 on PRMT5 (Homo sapiens) and write it down.
[reply] 50 to 500 nM

[ask] Report IC50 from PRMT5 (Homo sapiens) testing of Cc1ncoc1COc1ccc2c(c1)CCN(C[C@@H](O)CNC(=O)c1cc(Nc3cccnc3)nc(N3[C@@H]4CC[C@H]3COC4)c1)C2
[reply] < 50 nM

[ask] Retrieve IC50 on PRMT5 (Homo sapiens); query Cc1c(OCc2cnco2)ccc2c1CCN(C[C@@H](O)CNC(=O)c1cc(NC3CCCCC3)ncn1)C2
[reply] 500 to 5000 nM

[ask] Name the recorded IC50 of CCCC(=O)N1CCC(Nc2cc(C(=O)NC[C@H](O)CN3CCc4c(ccc(OCc5cnco5)c4Cl)C3)ccn2)CC1 , assay system PRMT5 (Homo sapiens).
[reply] 50 to 500 nM

[ask] Enter IC50 (test system PRMT5 (Homo sapiens)) for Cc1ncoc1COc1ccc2c(c1C)CCN(C[C@@H](O)CNC(=O)c1cc(NC3CCC3)nc(N3CCOCC3)c1)C2
[reply] 50 to 500 nM

[ask] Enter recorded IC50 with PRMT5 (Homo sapiens) for Cc1c(OCc2cnco2)ccc2c1CCN(C[C@@H](O)CNC(=O)c1ccnc(NC3CN(C(=O)CC(C)C)C3)c1)C2 here.
[reply] 50 to 500 nM

[ask] Name the recorded IC50 of Cc1ncoc1COc1ccc2c(c1)CCN(C[C@@H](O)CNC(=O)c1cc(NC3COC3)nc(N3CCN(C(=O)C(C)C)CC3)n1)C2 , assay system PRMT5 (Homo sapiens).
[reply] 50 to 500 nM

[ask] State IC50 on PRMT5 (Homo sapiens). Entry: CC(=O)N1CCC(Nc2cc(C(=O)NC[C@H](O)CN3CCc4c(ccc(OCc5conc5C)c4Cl)C3)ncn2)CC1
[reply] 500 to 5000 nM

[ask] Given CCN1CCN(c2cc(C(=O)NC[C@H](O)CN3CCc4cc(OCc5cnco5)ccc4C3)cc(NC3CCC3)n2)CC1 , report its IC50 on PRMT5 (Homo sapiens).
[reply] 50 to 500 nM

[ask] Fetch value of IC50 on PRMT5 (Homo sapiens) for CCN1CCN(c2nc(NC3COC3)cc(C(=O)NC[C@H](O)CN3CCc4c(ccc(OCc5ocnc5C)c4C)C3)n2)CC1 .
[reply] 50 to 500 nM

[ask] Lab note: record IC50 of CC(C)N1CCN(c2cc(C(=O)NC[C@H](O)CN3CCc4c(ccc(OCc5cnco5)c4Cl)C3)cc(NC3CCC3)n2)CC1 tested on PRMT5 (Homo sapiens).
[reply] 50 to 500 nM

[ask] Give IC50 for CCCC(=O)N1CC(Nc2cc(C(=O)NC[C@H](O)CN3CCc4c(ccc(OCc5cnco5)c4C)C3)ccn2)C1 tested on PRMT5 (Homo sapiens).
[reply] 50 to 500 nM

[ask] Consider the compound Cc1ncoc1COc1ccc2c(c1)CCN(C[C@@H](O)CNC(=O)c1cc(NC3COC3)nc(N3CCN(C)CC3)n1)C2 tested on PRMT5 (Homo sapiens); state its IC50.
[reply] 50 to 500 nM

* * *

Attribute: IC50
Target: PRMT5 (Homo sapiens)
Construct: purchased Viva (custom protein)
Test: PRMT5 IC50 assay in the presence of MTA as cofactor
Type: biochemical
Details: PRMT5, MTA as cofactor

[ask] Give PRMT5 (Homo sapiens) IC50 for the following compound: CC(=O)N1CCC(Nc2cc(C(=O)NC[C@H](O)CN3CCc4cc(OCc5cnco5)ccc4C3)ncn2)CC1
[reply] 50 to 500 nM

[ask] Report IC50 on PRMT5 (Homo sapiens) for this entry: CC(C)N1CCN(c2nc(NC3COC3)cc(C(=O)NC[C@H](O)CN3CCc4cc(OCc5cnco5)ccc4C3)n2)CC1
[reply] 50 to 500 nM

[ask] Look up and report IC50, with PRMT5 (Homo sapiens) as system, for Cc1ncoc1COc1ccc2c(c1)CCN(C[C@@H](O)CNC(=O)c1ccnc(NC3CC4(CCC4)C3)c1)C2
[reply] < 50 nM

[ask] Report IC50 on PRMT5 (Homo sapiens) for this entry: COc1cc(C(=O)NC[C@H](O)CN2CCc3cc(OCc4cnco4)ccc3C2)cc(NC2CCC2)n1
[reply] 50 to 500 nM

[ask] Report the value of IC50 obtained on PRMT5 (Homo sapiens) for CC(C)Cc1cc(C(=O)NC[C@H](O)CN2CCc3c(ccc(OCc4cnco4)c3Cl)C2)cc(NC2CCC2)n1 .
[reply] 500 to 5000 nM

[ask] Recall the reported IC50 of CC(C)C(=O)N1CCC(Nc2cc(C(=O)NC[C@H](O)CN3CCc4c(ccc(OCc5cnco5)c4Cl)C3)ccn2)CC1 when tested on PRMT5 (Homo sapiens).
[reply] 50 to 500 nM

[ask] Send back PRMT5 (Homo sapiens) IC50 of CC(C)C(=O)N1CCN(c2nc(NC3COC3)cc(C(=O)NC[C@H](O)CN3CCc4c(ccc(OCc5cnco5)c4Cl)C3)n2)CC1 only.
[reply] 50 to 500 nM

* * *

Molecular target: PRMT5 (Homo sapiens)
Construct: purchased Viva (custom protein)
Assay: PRMT5 IC50 assay in the presence of MTA as cofactor
Assay type: biochemical
Settings: PRMT5, MTA as cofactor
pIC50: −log10 of the molar value.
READOUT_NAME: pIC50

Consider the reported pIC50 for these molecules:
{"columns": ["SAMPLE_SMILES", "pIC50"],
 "data": [
  ["O=C(NC[C@H](O)CN1CCc2c(ccc(OCc3cnco3)c2Br)C1)c1ccnc(NC2CCCC2)c1", "6.30 to 7.30"],
  ["CCN(C)c1cc(C(=O)NC[C@H](O)CN2CCc3cc(OCc4ocnc4C)ccc3C2)cc(NC2CCC2)n1", "6.30 to 7.30"]
]}

[ask] Jot down pIC50 (PRMT5 (Homo sapiens)) of O=C(NC[C@H](O)CN1CCc2cc(OCc3cnco3)ccc2C1)c1cc(NC2CCC2)nc(N2CCOCC2)c1 .
[reply] 6.30 to 7.30

[ask] State the measured pIC50 (PRMT5 (Homo sapiens)) of Cc1c(OCc2cnco2)cc(F)c2c1CCN(C[C@@H](O)CNC(=O)c1ccnc(NC3CCC3)c1)C2
[reply] 6.30 to 7.30

[ask] Write pIC50 of Cc1ncoc1COc1ccc2c(c1)CCN(C[C@@H](O)CNC(=O)c1ccnc(NC3CCN(C(=O)C4CC4)CC3)c1)C2 ; system used: PRMT5 (Homo sapiens)
[reply] > 7.30

[ask] Provide the reported pIC50 (system: PRMT5 (Homo sapiens)) for CC(=O)N1CCC(Nc2cc(C(=O)NC[C@H](O)CN3CCc4cc(OCc5ocnc5C)ccc4C3)cc(N(C)C3CCC3)n2)CC1
[reply] > 7.30

[ask] Give reported pIC50 for O=C(NC[C@H](O)CN1CCc2c(ccc(OCc3cnco3)c2Cl)C1)c1ccnc(N[C@H]2CC[C@H](C(F)(F)F)CC2)c1 (PRMT5 (Homo sapiens))
[reply] 6.30 to 7.30
